Test: Plasma concentrations during 24-hour continuous intravenous infusion
Type: in vivo, Sprague-Dawley rats
Settings: male, Sprague-Dawley, rat, plasma, iv, 100 mg/kg, male Sprague-Dawley rats; 24-hour intravenous infusion at 100 mg/kg; time 2 h; read-out: Plasma concentration, Mean
measured parameter: concentration at 2 h (ng/mL)
Reply numerically in ng/mL, unit not repeated.

Reported concentration at 2 h of O=C(O)c1cc(-c2ccc(C3CCNCC3)cc2)c2ccc(-c3ccc(C(F)(F)F)cc3)cc2c1 : 2760

###

Experiment: Plasma concentrations during 24-hour continuous intravenous infusion
Format: in vivo, Sprague-Dawley rats
Settings: male, Sprague-Dawley, rat, plasma, iv, 30 mg/kg, male Sprague-Dawley rats; 24-hour intravenous infusion at 30 mg/kg; time 2 h; read-out: Plasma concentration, Mean
Description: The safety and pharmacokinetics of PPTN (KB-1801) in rats receiving continuous intravenous injections of SBECD-containing solutions were analyzed. Three cohorts of six male and six female rats each were given continuous intravenous infusion of PPTN (KB-1801) at 10 mg/kg/day, 30 mg/kg/day or 100 mg/kg/day in a dosing solution containing PPTN at 0.25 mg/mL, 0.75 mg/mL or 2.5 mg/mL and SBECD at about 3.8%. Dosing volume was 40 mIkg/day. [table]
measured parameter: concentration at 2 h (ng/mL)
The reply should contain only the number, in ng/mL.

The reported value for O=C(O)c1cc(-c2ccc(C3CCNCC3)cc2)c2ccc(-c3ccc(C(F)(F)F)cc3)cc2c1 in terms of concentration at 2 h is 1100

###

Assay: Plasma concentrations during 24-hour continuous intravenous infusion
Type: in vivo, Sprague-Dawley rats
Settings: male, Sprague-Dawley, rat, plasma, iv, 30 mg/kg, male Sprague-Dawley rats; 24-hour intravenous infusion at 30 mg/kg; time 4 h; read-out: Plasma concentration, individual animal
measured parameter: concentration at 4 h (ng/mL)
API: value field is a number in ng/mL; no unit string.

Documented concentration at 4 h of O=C(O)c1cc(-c2ccc(C3CCNCC3)cc2)c2ccc(-c3ccc(C(F)(F)F)cc3)cc2c1 : 1460

###

Experiment: Plasma concentrations during 24-hour continuous intravenous infusion
Type: in vivo, Sprague-Dawley rats
Conditions: male, Sprague-Dawley, rat, plasma, iv, 10 mg/kg, male Sprague-Dawley rats; 24-hour intravenous infusion at 10 mg/kg; time 2 h; read-out: Plasma concentration, Mean
measured parameter: concentration at 2 h (ng/mL)
// units = ng/mL; emit number, no label

Reported concentration at 2 h ( O=C(O)c1cc(-c2ccc(C3CCNCC3)cc2)c2ccc(-c3ccc(C(F)(F)F)cc3)cc2c1 [KB-1801] ) = 276

###

Assay: Plasma concentrations and TK parameters, 72-hour continuous intravenous infusion
Format: in vivo, Sprague-Dawley rats
Settings: male, Sprague-Dawley, rat, plasma, iv, 10 mg/kg/day, male Sprague-Dawley rats; 72-hour intravenous infusion at 10 mg/kg/day; time 24 h; read-out: Plasma concentration, individual animal
measured parameter: concentration at 24 h (ng/mL)
# number only, unit ng/mL dropped from output

concentration at 24 h reported for this molecule O=C(O)c1cc(-c2ccc(C3CCNCC3)cc2)c2ccc(-c3ccc(C(F)(F)F)cc3)cc2c1 [KB-1801] : 908

###

Test: Plasma concentrations and TK parameters, 72-hour continuous intravenous infusion
Type: in vivo, Sprague-Dawley rats
Conditions: male, Sprague-Dawley, rat, plasma, iv, 100 mg/kg, male Sprague-Dawley rats; 72-hour intravenous infusion at 100 mg/kg; time 72 h; read-out: Plasma concentration, Mean
measured parameter: concentration at 72 h

Kindly note the recorded concentration at 72 h for O=C(O)c1cc(-c2ccc(C3CCNCC3)cc2)c2ccc(-c3ccc(C(F)(F)F)cc3)cc2c1 , which is 9790 ng/mL
